# measured_on: T1, ARHGEF11, O15085
# T1 sequence (O15085 42-136, limits assumed, looked up): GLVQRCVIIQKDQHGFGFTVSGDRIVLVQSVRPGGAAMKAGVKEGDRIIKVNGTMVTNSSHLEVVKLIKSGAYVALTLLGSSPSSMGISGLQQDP
# experimental_protocol: holdup assay
# Set-up: key: below the threshold = too weak to quantify, mostly under pKd 3.1 to 4
# setup_conditions: plain residues with an end cap or a label only (N-terminal biotin on a linker: ado-ado)
property_name: pKd
Write the value as a bare number.

Completed entries (count: 6):
PALKNGQYWV [CSPG4, Q6UVK1]    3.8
KLQNPNQSVV [TYRP1, P17643]    3.9
DSEEELPTRL [GRK6, P43250]    3.78
ADEMICITTL [CACNA1D, Q01668]    5.77
PEKVSNTTVV [IGSF5, Q9NSI5]    4.24
NISARRFTLC [FAM167B, Q9BTA0]    3.86

Consider now this further binder.
Fill in the blank: the reported pKd of VISSDDLTEL [CAPN6, Q9Y6Q1] is ____. 4.45
